# tested_system: murine class II MHC allele E^k on CH27 B cell lymphoma antigen presenting cells (murine)
# test_details: cell-based or functional assay
Non-standard residues stand in square brackets, D forms with d. Ava = NCCCCC(=O)O
assay_endpoint: T cell proliferative response (HT-2 [3H]TdR uptake) at 0.18 nM

// solved cases for T cell proliferative response (HT-2 [3H]TdR uptake) at 0.18 nM follow
Note T cell proliferative response (HT-2 [3H]TdR uptake) at 0.18 nM for the binder shown: Ac-LRMKLPKSAKPVSKIAYLKQATAK-NH2 [Hybrid 6, Ac-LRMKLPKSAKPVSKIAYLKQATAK-NH2] 11.9 thousands of cpm

Note T cell proliferative response (HT-2 [3H]TdR uptake) at 0.18 nM for the binder shown: Ac-LRMK[Ava]IAYLKQATAK-NH2 (SMILES CC[C@H](C)[C@H](NC(=O)CCCCNC(=O)[C@H](CCCCN)NC(=O)[C@H](CCSC)NC(=O)[C@H](CCCNC(=N)N)NC(=O)[C@H](CC(C)C)NC(C)=O)C(=O)N[C@@H](C)C(=O)N[C@@H](Cc1ccc(O)cc1)C(=O)N[C@@H](CC(C)C)C(=O)N[C@@H](CCCCN)C(=O)N[C@@H](CCC(N)=O)C(=O)N[C@@H](C)C(=O)N[C@H](C(=O)N[C@@H](C)C(=O)N[C@@H](CCCCN)C(N)=O)[C@@H](C)O) [Hybrid 2, Ac-LRMK-ava-IAYLKQATAK-NH2] 31.2 thousands of cpm

***
Note T cell proliferative response (HT-2 [3H]TdR uptake) at 0.18 nM for the binder shown: Ac-LRMKLPKSIAYLKQATAK-NH2 [Hybrid 4, Ac-LRMKLPKSIAYLKQATAK-NH2] 9.1 thousands of cpm

Note T cell proliferative response (HT-2 [3H]TdR uptake) at 0.18 nM for the binder shown: Ac-LRMK[Ava][Ava]IAYLKQATAK-NH2 (SMILES CC[C@H](C)[C@H](NC(=O)CCCCNC(=O)CCCCNC(=O)[C@H](CCCCN)NC(=O)[C@H](CCSC)NC(=O)[C@H](CCCNC(=N)N)NC(=O)[C@H](CC(C)C)NC(C)=O)C(=O)N[C@@H](C)C(=O)N[C@@H](Cc1ccc(O)cc1)C(=O)N[C@@H](CC(C)C)C(=O)N[C@@H](CCCCN)C(=O)N[C@@H](CCC(N)=O)C(=O)N[C@@H](C)C(=O)N[C@H](C(=O)N[C@@H](C)C(=O)N[C@@H](CCCCN)C(N)=O)[C@@H](C)O) [Hybrid 3, Ac-LRMK-ava-ava-IAYLKQATAK-NH2] 21.6 thousands of cpm

Note T cell proliferative response (HT-2 [3H]TdR uptake) at 0.18 nM for the binder shown: Ac-LRMKLPKSAKPIAYLKQATAK-NH2 [Hybrid 5, Ac-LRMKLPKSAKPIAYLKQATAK-NH2] 36.7 thousands of cpm
